# TARGET_OR_SYSTEM: PI3K γ (Homo sapiens (Human), UniProt P48736)
# Sequence (P48736 whole entry, species assumed): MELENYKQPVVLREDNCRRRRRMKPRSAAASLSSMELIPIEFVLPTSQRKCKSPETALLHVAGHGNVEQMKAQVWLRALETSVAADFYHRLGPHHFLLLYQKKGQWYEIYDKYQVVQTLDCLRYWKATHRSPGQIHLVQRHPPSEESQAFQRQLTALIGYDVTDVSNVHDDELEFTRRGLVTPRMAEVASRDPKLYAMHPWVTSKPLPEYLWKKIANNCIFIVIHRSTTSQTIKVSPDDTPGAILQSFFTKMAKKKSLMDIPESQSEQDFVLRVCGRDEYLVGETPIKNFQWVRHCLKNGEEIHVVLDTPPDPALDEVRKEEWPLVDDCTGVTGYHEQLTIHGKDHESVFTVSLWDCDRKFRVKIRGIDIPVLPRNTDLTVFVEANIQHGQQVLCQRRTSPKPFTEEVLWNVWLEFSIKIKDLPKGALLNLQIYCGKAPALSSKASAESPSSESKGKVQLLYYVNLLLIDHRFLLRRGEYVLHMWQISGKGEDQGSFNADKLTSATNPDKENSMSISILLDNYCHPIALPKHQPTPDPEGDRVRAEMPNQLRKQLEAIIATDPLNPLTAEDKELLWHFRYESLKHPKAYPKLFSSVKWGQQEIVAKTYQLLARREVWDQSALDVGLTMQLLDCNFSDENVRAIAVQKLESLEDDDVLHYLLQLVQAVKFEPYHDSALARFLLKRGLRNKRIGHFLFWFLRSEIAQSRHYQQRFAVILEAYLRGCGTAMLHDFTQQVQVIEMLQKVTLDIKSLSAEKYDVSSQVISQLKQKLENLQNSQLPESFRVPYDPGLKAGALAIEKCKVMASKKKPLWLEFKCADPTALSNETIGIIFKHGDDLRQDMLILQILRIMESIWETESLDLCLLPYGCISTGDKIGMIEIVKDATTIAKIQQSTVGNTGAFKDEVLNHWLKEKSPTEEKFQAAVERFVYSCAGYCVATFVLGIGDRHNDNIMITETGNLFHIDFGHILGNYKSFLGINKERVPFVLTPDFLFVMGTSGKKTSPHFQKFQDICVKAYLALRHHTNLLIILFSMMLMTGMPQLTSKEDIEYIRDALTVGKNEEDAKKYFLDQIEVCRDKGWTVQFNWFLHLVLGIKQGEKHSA
# EXPERIMENTAL_DETAILS: PI3K γ kinase assay
# Format: biochemical
# CONDITION_SUMMARY: Table 2
pIC50: −log10 of the molar value.
MEASURED_PARAMETER: pIC50

Example molecules with recorded pIC50:
[[record]]
molecule = "CC(C)n1nc(-c2cc3c(Cl)ccc(O)c3[nH]2)c2c(N)ncnc21"
result = "< 6.30"

[[record]]
molecule = "CC(=O)N1CCC(n2nc(-c3cc4ccc(O)cc4[nH]3)c3c(N)ncnc32)CC1"
result = "> 7.60"

[[record]]
molecule = "COc1cccc2cc(-c3nn(C4CCOCC4)c4ncnc(N)c34)[nH]c12"
result = "> 7.60"


Kindly review the next molecule as well.
Lab note: measured pIC50 of CN1CCN(C2CCC(n3nc(-c4cc5cc(O)ccc5[nH]4)c4c(N)ncnc43)CC2)CC1 (stereo not shown) was < 6.30
